Target: T1, Human B7-H4 with HisFlag tag (huB7-H4-his) (human, UniProt Q7Z7D3 25-258)
T1 construct: also called HuB7-H4 His protein; huB7-H4-HF
T1 sequence: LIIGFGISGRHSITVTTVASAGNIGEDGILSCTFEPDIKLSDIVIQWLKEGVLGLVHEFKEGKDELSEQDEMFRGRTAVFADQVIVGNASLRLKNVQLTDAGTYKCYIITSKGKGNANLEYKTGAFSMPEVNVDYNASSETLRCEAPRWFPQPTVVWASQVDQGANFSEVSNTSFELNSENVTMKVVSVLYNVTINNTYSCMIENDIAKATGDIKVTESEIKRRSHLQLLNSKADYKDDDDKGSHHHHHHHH
Assay: SPR Biacore T200, antibody coupled to CM5 chip, series of huB7-H4-his concentrations, 1:1 model
Please provide measured kon for the entries that follow.
All answers are understood in M⁻¹ s⁻¹, so give the number only.

What the record says about chimeric antibody M1 (antibody, V domains shown, also called ch-M1) VH: EIQLQQSGPELVMPGASVKVSCTASGYPFTTYNMYWVKQSHGKSLEWIAYIDPYNGGTSYNQKFKGKATLTVDKSSSTAYMHLNSLTSEDSAVYYCARSGFYDGYYAWYFDVWGAGTTVTVSS VL: DVVMTQTPLSLPVSLGDQASISCRSSQSLVHSGGNTYLHWYLQKPGQSPKLLIYKVSNRFSGVPDRFSGSGSGTDFTLKISRVEAEDLGVYFCSQSTHVPLTFGAGTKLELK : kon is 674000

get_value(item= chimeric antibody 2F7 (antibody, human IgG1, V domains shown, also called ch-2F7) VH: EVQLVESGGGLVQPGGSLKLSCAASGFTFSNYYMSWVRQTPEKRLEWVAYVSSGGGSTYYSDSVKGRFTISRDNAKNTLYLQMSSLKPEDTAMYYCTRESYSQGNYFDYWGQGTTLTVSS VL: DIVMTQSPATLSVTPGDRVSLSCRASQSISDYLHWYQQKSHESPRLLIKFASQSISGIPSRFSGSGSGSDFTLSINSVEPEDVGVYYCQNGHSFSLTFGAGTKLELK , readout=kon) returns 44200

// kon value for chimeric antibody 2F8 (antibody, human IgG1, V domains shown, also called ch-2F8) VH: QVQLQQPGSVLVRPGASVKLSCKASGYTFTNSWMNWAKLRPGQGLEWIGGIYPNSGNIEYNEKFKGKATLTVDTSSSTAYMDLTSLTSEDSAVYYCARDSRFSYWGQGTLVTVSA VL: DIVMTQSHKFMSTSVGDRVSITCKASQDVRTAVAWYQQKPGQSPKLLISSTSYRYTGVPDRFTGSGSGTDFTFIISSVQAEDLAVYYCQQHYSTPLTFGAGTKLELK : 1.13e+06

kon recorded for this binder, chimeric antibody 2F4 (antibody, human IgG1, V domains shown, also called ch-2F4) VH: EVQLVESGGGLVKPGGSLKLSCAASGLTFSRYAMSWVRQTPEKRLEWVAGISSGGSYTYYSDTVKGRFTISRDNVRNTLYLQMSSLRSEDTAMYYCGREYGRDYWGQGTSVTVSS VL: DILMTQSPSSMSVSLGDTVSITCHASQGINSNIGWLQQKPGKSFKGLIYHGTNLEDGVPSRFSGSGSGTDYSLTISSLESEDFADYYCVQYAQFPRTFGGGTTLEIK , is 1.04e+06

Cited source: patent US20210032347A1
